# Measurement Protocol: Comparative stability in simulated gastric fluid (SGF), degradation by LCMS
# Assay type: physicochemical
# Test Parameters: 50° C. SGF, 24 hr, LCMS UV peak areas at 254 nm
Readout Name: % degradn. @ 24 hr

Reference set, count: 3
Compound	% degradn. @ 24 hr
Cc1cc(-c2ncc(CNC(=O)c3ccc(-c4cnccn4)cn3)cc2F)ccn1 [drawing 199]	~0%
O=C(Cc1ccc(-c2ccnnc2)c(C(F)(F)F)c1)Nc1ccc(-c2cccnn2)cn1 [reference compound]	26.7%
Cc1cc(CNC(=O)c2ccc(-c3cnccn3)cn2)cnc1-c1ccnc(C(F)(F)F)c1 [drawing 200]	~0%

Param item = Cc1cc(CC(=O)Nc2ccc(-c3cccc(F)c3)cn2)cnc1-c1ccnnc1 [reference compound] ; retrieve measured % degradn. @ 24 hr.
25.0%
